Assay: gradient 5% acetonitrile 3 min, to 50% in 2 min, to 85% in 15 min, held 3 min, 100 µL/min
Details: column: Zorbax Extend-C18 2.1 x 50 mm; eluents: water / acetonitrile, 0.1% formic acid
measuredMetric: RP-LC retention time

Solved cases below.
compoundStructureString: CCCNC(=O)CCc1nc2ccccc2n(CC(=O)NCc2ccc(F)cc2)c1=O
RP-LC retention time: 750 s

compoundStructureString: COCCn1cc2c3c(cccc31)CN(C(=O)Nc1ccc(OC)cc1)CC2
RP-LC retention time: 833 s

compoundStructureString: COc1ccc(NC(=O)CN2CCc3[nH]c4c(C)cc(F)cc4c(=O)c3C2)cc1
RP-LC retention time: 600 s

compoundStructureString: CCOc1ccc(CCNC(=O)c2cc3sccc3n2CC)cc1OCC
RP-LC retention time: 1050 s

# input Item O=c1ccc(S(=O)(=O)N2CCCCCC2)cn1Cc1ccccc1F has what recorded RP-LC retention time?
# output 936 s

# input Return reported RP-LC retention time; argument: CCOCCCNC(=O)c1csc(-c2ccnc(N3CCCC3)c2)n1
# output 592 s

# input Consider the molecule Cc1nc2cccnc2n1C1CCN(C(=O)Nc2ccc(F)cc2)CC1 and give its measured RP-LC retention time.
# output 640 s

# input Reported RP-LC retention time, molecule O=C(CCn1nnc2cc(-c3noc(COc4ccc(F)cc4)n3)ccc21)N1CCCCCC1 : ____
# output 990 s

---

Assay: gradient 5% acetonitrile 3 min, to 50% in 2 min, to 85% in 15 min, held 3 min, 100 µL/min
Details: column: Zorbax Extend-C18 2.1 x 50 mm; eluents: water / acetonitrile, 0.1% formic acid
Listed compounds paired with reported RP-LC retention time
Your answer should be a plain number; it is taken to be in s.

# count of solved cases: 8
compound: O=C(CCc1c(-c2ccc(Cl)cc2)nc2ccccn12)Nc1cccc(C(F)(F)F)c1
measuredMetric: RP-LC retention time
reportedValue: 782

compound: Cc1nn(C)cc1S(=O)(=O)Nc1ccc(C(F)(F)F)cc1
measuredMetric: RP-LC retention time
reportedValue: 753

compound: CC1=C(c2ccc(F)cc2)S(=O)(=O)N=C1N1CCCN(C(=O)NC2CCCCC2)CC1
measuredMetric: RP-LC retention time
reportedValue: 845

compound: NC(=O)N/N=C1\CC2CC1C1C=CCC21 (centres undefined)
measuredMetric: RP-LC retention time
reportedValue: 768

compound: COc1ccc(/C=C/c2nc(-c3ccc4oc(C)nc4c3)no2)cc1OC
measuredMetric: RP-LC retention time
reportedValue: 995

compound: CCC(Sc1nncn1C)C(=O)Nc1nnc(-c2cccc([N+](=O)[O-])c2)s1 (centres undefined)
measuredMetric: RP-LC retention time
reportedValue: 689

compound: COc1ccc(OCc2noc(CNC(=O)c3cnn(-c4ccccc4)c3C)n2)cc1
measuredMetric: RP-LC retention time
reportedValue: 799

compound: CCC1CCCCN1CCCNC(=O)CCCn1c(=O)c2cccn2c2ccccc21 (centres undefined)
measuredMetric: RP-LC retention time
reportedValue: 641

# input Please look up its RP-LC retention time: COCC(=O)Nc1ccc(-c2nc3cccnc3s2)cc1C
# output 729

# input I have this compound here, CCN(CC)C(=O)C1CCN(S(=O)(=O)c2ccc3c(c2)NC(=O)CO3)CC1 , and I need its recorded RP-LC retention time.
# output 680

# input Report RP-LC retention time for CN1CCN(c2c3c(nc4nc(-c5ccccc5)nn24)CCCC3)CC1 please.
# output 582

# input Field request: RP-LC retention time | item: CCn1c(=O)c2ccccc2n(Cc2nc(-c3cccc(Cl)c3)no2)c1=O
# output 1090

# input What does the data say about its RP-LC retention time? Entry: Cc1ccc(C)c(-c2coc(-c3ccc(NC(=O)NCc4cccc(F)c4)cc3)n2)c1
# output 1190

# input State the recorded RP-LC retention time for this entry: O=C(NC1CCCC1)c1ccc(-c2cccs2)nc1
# output 849

Where do these numbers come from? They come from the METLIN SMRT retention time set (Domingo-Almenara et al. 2019).
